src = patent US20260265304A1

# TGT: T1, biotinylated Avitag-FAT protein (UniProt Q05397 919-1052, limits assumed, biotinylated (Avitag))
# T1 construct: domain: FAT; Immobilised on a streptavidin sensor for SPR; also called WT FAT; FAT domain of FAK; not shown: Avitag
# T1 sequence (looked up): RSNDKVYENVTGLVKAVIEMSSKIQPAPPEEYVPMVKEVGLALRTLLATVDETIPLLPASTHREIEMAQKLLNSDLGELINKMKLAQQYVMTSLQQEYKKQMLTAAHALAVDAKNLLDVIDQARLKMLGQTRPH
# EXPERIMENT_SUMMARY: SPR, biotinylated Avitag-FAT immobilised
# Method: SPR binding studies were performed on a ForteBio Pioneer FE SPR system. In brief, a SADH Streptavidin in Dextran Hydrogel biosensor (ForteBio) was docked onto the flow cell and preconditioned with two injections of 10 mM NaOH, 1 M NaCl for 1 min at 50 μL/min. […] Empty channel 2 served as the reference control. […]
Positions of bridges follow the written chain, without caps; N, C: chain ends. Non-standard residues stand in square brackets, D forms with d. R8 = C=CCCCCCC[C@@](C)(N)C(=O)O; S5 = C=CCCC[C@](C)(N)C(=O)O
READOUT_TYPE: Kd

>>> result("Ac-[R8]ELDRLL[S5]-NH2 (staple 1-8) [2011]")
"> 200 µM"
>>> result("Ac-NL[R8]EEDRLL[S5]EEN-NH2 (staple 3-10; SMILES CC(=O)N[C@@H](CC(N)=O)C(=O)N[C@@H](CC(C)C)C(=O)N[C@]1(C)CCCCCCC=CCCC[C@@](C)(C(=O)N[C@@H](CCC(=O)O)C(=O)N[C@@H](CCC(=O)O)C(=O)N[C@@H](CC(N)=O)C(N)=O)NC(=O)[C@H](CC(C)C)NC(=O)[C@H](CC(C)C)NC(=O)[C@H](CCCNC(=N)N)NC(=O)[C@H](CC(=O)O)NC(=O)[C@H](CCC(=O)O)NC(=O)[C@H](CCC(=O)O)NC1=O, non-active molecule) [2014]")
"> 200 µM"
